- assay_explanation: gradient 5% acetonitrile 3 min, to 50% in 2 min, to 85% in 15 min, held 3 min, 100 µL/min
- measurement_conditions: column: Zorbax Extend-C18 2.1 x 50 mm; eluents: water / acetonitrile, 0.1% formic acid
endpoint_label: RP-LC retention time (s)
// note: answer is a bare numeric in s

Reference set, count: 5
In [3]: df
Out[3]:
                                   molecule  endpoint_value
0  CC(C)C(=O)N1CC(c2nc(-c3ccc(F)cc3)no2)C2(CCOCC2)C1 (centres undefined)             857
1  Cc1cc(C)c(S(=O)(=O)N2CCC(n3cnc4ccc(C)cc4c3=O)CC2)c(C)c1             640
2  COc1nccc(N2CCC(CC(=O)NCc3cccc(OC)c3OC)CC2)n1             607
3  Cc1c(N2CCCC2)cc2c(c1NC(=O)c1ccccc1Cl)C(C)(C)CC2(C)C             874
4  Cc1ccc(Cn2c(N3CCCC(C(=O)NCc4ccc(C)o4)C3)nc3ccsc3c2=O)cc1 (centres undefined)             952

# RP-LC retention time lookup, item `Cn1ncc2c3ccccc3n(CCCC(=O)NCCc3ccco3)c2c1=O` 775

Request: `Cn1cnc(S(=O)(=O)N2CCC(C(=O)NCc3ccccc3Cl)CC2)c1` 695

Request: CCNC(=O)C1CCCN(c2nc3ncn(CC(=O)Nc4ccc(C(C)C)cc4)c(=O)c3s2)C1 (centres undefined) 759

Request: Cc1ccccc1NC(=O)C1CC(=O)N(c2ccc3c(c2)CCN3C(=O)C2CCC2)C1 (centres undefined) 803
